# PROTOCOL SUMMARY: Inhibition of Plasmodium falciparum falcipain 2
In plain terms, low IC50, meaning strictly below 10 µM, gives t, and everything else gives f.

Ask | Please determine if "CC(C)NCCCNc1c2ccccc2[n+](C)c2c1[nH]c1ccccc12.[Cl-]" is below 10 µM in terms of IC50.
Reply | f

Ask | One more compound: "CCN(CC)c1c2ccccc2[n+](C)c2c1[nH]c1ccccc12.[Cl-]"
Reply | f

Ask | One more compound: "C[n+]1c2ccccc2c(NC2CCN(Cc3ccccc3O)CC2)c2[nH]c3ccccc3c21.[Cl-]"
Reply | f

Ask | One more compound: "CCN(CC)Cc1ccc(Nc2c3ccccc3[n+](C)c3c2[nH]c2ccccc23)cc1O.[Cl-]"
Reply | f

Ask | One more compound: "C[n+]1c2ccccc2c(NC2CCNCC2)c2[nH]c3ccccc3c21.[Cl-]"
Reply | t

Ask | One more compound: "CN(C)CCNc1c2ccccc2[n+](C)c2c1[nH]c1ccccc12.[Cl-]"
Reply | f

Ask | One more compound: "C[n+]1c2ccccc2c(Nc2cccnc2)c2[nH]c3ccccc3c21.[Cl-]"
Reply | t

Ask | One more compound: "CC(C)CN1CCC(Nc2c3ccccc3[n+](C)c3c2[nH]c2ccccc23)CC1.[Cl-]"
Reply | f

Ask | One more compound: "CCN(CC)CCNc1c2ccccc2[n+](C)c2c1[nH]c1ccccc12.[Cl-]"
Reply | f

Ask | One more compound: "C[n+]1c2cc(Cl)ccc2c(NC2CCNCC2)c2[nH]c3ccccc3c21.[Cl-]"
Reply | t

Ask | One more compound: "C[n+]1c2ccccc2c(NCCCN)c2[nH]c3ccccc3c21.[Cl-]"
Reply | f

Ask | One more compound: "C[n+]1c2ccccc2c(NC2CCN(Cc3ccccc3)CC2)c2[nH]c3ccccc3c21.[Cl-]"
Reply | f

Ask | One more compound: "CCN(CC)CCCNc1c2ccc(Cl)cc2[n+](C)c2c1[nH]c1ccccc12.[Cl-]"
Reply | f
